# system_tested: Mu-type opioid receptor (Homo sapiens, UniProt P35372)
# Sequence (P35372 whole entry): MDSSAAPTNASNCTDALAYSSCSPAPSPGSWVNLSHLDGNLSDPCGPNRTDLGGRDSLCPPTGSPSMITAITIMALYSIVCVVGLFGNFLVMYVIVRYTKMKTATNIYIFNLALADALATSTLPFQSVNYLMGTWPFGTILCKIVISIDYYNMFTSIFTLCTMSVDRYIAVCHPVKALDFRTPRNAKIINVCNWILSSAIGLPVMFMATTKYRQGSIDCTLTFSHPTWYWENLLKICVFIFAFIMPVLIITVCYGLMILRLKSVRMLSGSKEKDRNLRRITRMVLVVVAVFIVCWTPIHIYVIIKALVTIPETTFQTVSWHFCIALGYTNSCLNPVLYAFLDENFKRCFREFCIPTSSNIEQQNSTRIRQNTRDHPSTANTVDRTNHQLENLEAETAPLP
# experiment: Displacement of [3H]DAMGO from human recombinant mu opioid receptor
pIC50: −log10 of the molar value.
observation_type: pIC50

[[record]]
entry_smiles = "Nn1c(CCCCN2CCN(c3ccc4ccccc4n3)CC2)nc2c(c1=O)CCCC2"
observation_type = "pIC50"
result = "< 6.00"


###

Each record here notes measured IC50.
# system_tested: 5-hydroxytryptamine receptor 3A (Homo sapiens, UniProt P46098)
# Sequence (P46098 whole entry): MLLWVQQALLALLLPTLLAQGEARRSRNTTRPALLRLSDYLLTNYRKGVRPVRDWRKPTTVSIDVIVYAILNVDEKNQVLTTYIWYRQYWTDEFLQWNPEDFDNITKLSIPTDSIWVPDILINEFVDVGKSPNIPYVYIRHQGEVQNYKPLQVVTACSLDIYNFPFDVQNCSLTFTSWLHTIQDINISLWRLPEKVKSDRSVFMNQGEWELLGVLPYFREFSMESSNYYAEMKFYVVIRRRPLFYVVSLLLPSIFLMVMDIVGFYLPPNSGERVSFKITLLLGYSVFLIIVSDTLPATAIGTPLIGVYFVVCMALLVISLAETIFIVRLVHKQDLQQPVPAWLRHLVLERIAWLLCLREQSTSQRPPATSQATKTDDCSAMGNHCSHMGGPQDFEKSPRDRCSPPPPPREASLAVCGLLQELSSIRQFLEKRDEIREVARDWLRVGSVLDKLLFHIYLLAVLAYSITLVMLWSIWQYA
# experiment: Displacement of [3H]BRL-43694 from human 5HT3 receptor expressed in HEK293 cells by liquid scintillation counting
# Type: cell-based
observation_type: IC50 (nM)

[[record]]
compound = "Nn1c(SCCCN2CCN(c3ccc4ccccc4n3)CC2)nc2cc([N+](=O)[O-])ccc2c1=O"
observation_type = "IC50"
unit_string = "nM"
limit_sign = ">"
recorded_number = 100

[[record]]
compound = "Nn1c(SCCCN2CCN(c3ccc4ccccc4n3)CC2)nc2ccccc2c1=O"
observation_type = "IC50"
unit_string = "nM"
limit_sign = "="
recorded_number = 69.9

[[record]]
compound = "Nn1c(CCCCN2CCN(c3nc4ccccc4c4c3CCC4)CC2)nc2c(c1=O)CCCC2"
observation_type = "IC50"
unit_string = "nM"
limit_sign = ">"
recorded_number = 100

[[record]]
compound = "Cc1sc2nc(CCCCN3CCN(c4ccc5ccccc5n4)CC3)n(N)c(=O)c2c1C"
observation_type = "IC50"
unit_string = "nM"
limit_sign = "="
recorded_number = 26.7

[[record]]
compound = "Nn1c(CCCCN2CCN(c3ccc4ccccc4n3)CC2)nc2c(c1=O)CCCC2"
observation_type = "IC50"
unit_string = "nM"
limit_sign = "="
recorded_number = 8.9

[[record]]
compound = "Cc1ccc2nc(CCCCN3CCN(c4ccc5ccccc5n4)CC3)n(N)c(=O)c2c1"
observation_type = "IC50"
unit_string = "nM"
limit_sign = "="
recorded_number = 45.6

[[record]]
compound = "Nn1c(CCCCCN2CCN(c3ccc4ccccc4n3)CC2)nc2c(c1=O)CCCC2"
observation_type = "IC50"
unit_string = "nM"
limit_sign = ">"
recorded_number = 100

[[record]]
compound = "Nn1c(CCCCN2CCN(c3ccc4cc(O)ccc4n3)CC2)nc2c(c1=O)CCCC2"
observation_type = "IC50"
unit_string = "nM"
limit_sign = ">"
recorded_number = 100

[[record]]
compound = "Nn1c(CN2CCN(c3ccc4ccccc4n3)CC2)nc2c(c1=O)CCCC2"
observation_type = "IC50"
unit_string = "nM"
limit_sign = "="
recorded_number = 86.6

[[record]]
compound = "Cc1cc2ccccc2nc1N1CCN(CCCCc2nc3c(c(=O)n2N)CCCC3)CC1"
observation_type = "IC50"
unit_string = "nM"
limit_sign = ">"
recorded_number = 100

[[record]]
compound = "Nn1c(CCCCN2CCN(c3ccc4ccccc4n3)CC2)nc2ccc(Cl)cc2c1=O"
observation_type = "IC50"
unit_string = "nM"
limit_sign = ">"
recorded_number = 100

[[record]]
compound = "Nn1c(CCCCN2CCN(c3nc4ccccc4cc3O)CC2)nc2c(c1=O)CCCC2"
observation_type = "IC50"
unit_string = "nM"
limit_sign = "="
recorded_number = 52.6

[[record]]
compound = "Cc1sc2nc(SCCCN3CCN(c4ccc5ccccc5n4)CC3)n(N)c(=O)c2c1C"
observation_type = "IC50"
unit_string = "nM"
limit_sign = "="
recorded_number = 48.4

[[record]]
compound = "Nn1c(CCCCN2CCN(c3ccc4ccc(O)cc4n3)CC2)nc2c(c1=O)CCCC2"
observation_type = "IC50"
unit_string = "nM"
limit_sign = "="
recorded_number = 55.2

[[record]]
compound = "Cc1sc2nc(SCCCN3CCN(c4cc(C)c5ccccc5n4)CC3)n(N)c(=O)c2c1C"
observation_type = "IC50"
unit_string = "nM"
limit_sign = "="
recorded_number = 50.5

[[record]]
compound = "Nn1c(SCCCN2CCN(c3ccc4ccccc4n3)CC2)nc2cccnc2c1=O"
observation_type = "IC50"
unit_string = "nM"
limit_sign = "="
recorded_number = 61

[[record]]
compound = "Cc1sc2nc(SCCCN3CCN(c4ccc5c(n4)CCCC5)CC3)n(N)c(=O)c2c1C"
observation_type = "IC50"
unit_string = "nM"
limit_sign = ">"
recorded_number = 100

[[record]]
compound = "Cc1sc2nc(SCCCN3CCN(c4ccccn4)CC3)n(N)c(=O)c2c1C"
observation_type = "IC50"
unit_string = "nM"
limit_sign = ">"
recorded_number = 100

[[record]]
compound = "Nn1c(SCCCN2CCN(c3ccc4ccccc4n3)CC2)nc2ncccc2c1=O"
observation_type = "IC50"
unit_string = "nM"
limit_sign = "="
recorded_number = 64.8

[[record]]
compound = "CC1CCc2c(nc(CCCCN3CCN(c4ccc5ccccc5n4)CC3)n(N)c2=O)C1 (stereo not given)"
observation_type = "IC50"
unit_string = "nM"
limit_sign = "="
recorded_number = 97.9

[[record]]
compound = "Cc1sc2nc(SCCCN3CCN(c4nc5ccccc5c5ccccc45)CC3)n(N)c(=O)c2c1C"
observation_type = "IC50"
unit_string = "nM"
limit_sign = ">"
recorded_number = 100

[[record]]
compound = "CC(=O)N1CCc2c(sc3nc(SCCCN4CCN(c5ccc6ccccc6n5)CC4)n(N)c(=O)c23)C1"
observation_type = "IC50"
unit_string = "nM"
limit_sign = "="
recorded_number = 77.6

[[record]]
compound = "Nn1c(CCN2CCN(c3ccc4ccccc4n3)CC2)nc2c(c1=O)CCCC2"
observation_type = "IC50"
unit_string = "nM"
limit_sign = ">"
recorded_number = 100

[[record]]
compound = "Nn1c(SCCCN2CCN(c3ccc4ccccc4n3)CC2)nc2sc3c(c2c1=O)CCNC3"
observation_type = "IC50"
unit_string = "nM"
limit_sign = "="
recorded_number = 100

[[record]]
compound = "O=c1[nH]c(SCCCN2CCN(c3ccc4ccccc4n3)CC2)nc2sc3c(c12)CCCC3"
observation_type = "IC50"
unit_string = "nM"
limit_sign = "="
recorded_number = 44.2

[[record]]
compound = "Nn1c(CCCCN2CCN(c3ccc4ccccc4n3)CC2)nc2ccc(F)cc2c1=O"
observation_type = "IC50"
unit_string = "nM"
limit_sign = "="
recorded_number = 99.4

[[record]]
compound = "Nn1c(CCCCN2CCN(c3ccc4ccccc4n3)CC2)nc2ccccc2c1=O"
observation_type = "IC50"
unit_string = "nM"
limit_sign = "="
recorded_number = 45.7

[[record]]
compound = "CC(=O)N1CCc2c(sc3nc(CCCCN4CCN(c5ccc6ccccc6n5)CC4)n(N)c(=O)c23)C1"
observation_type = "IC50"
unit_string = "nM"
limit_sign = "="
recorded_number = 22.1

[[record]]
compound = "Cc1cccc2c(=O)n(N)c(CCCCN3CCN(c4ccc5ccccc5n4)CC3)nc12"
observation_type = "IC50"
unit_string = "nM"
limit_sign = "="
recorded_number = 15.6

[[record]]
compound = "Cc1cc(N2CCN(CCCCc3nc4c(c(=O)n3N)CCCC4)CC2)nc2ccccc12"
observation_type = "IC50"
unit_string = "nM"
limit_sign = "="
recorded_number = 59.1

[[record]]
compound = "Cc1sc2nc(SCCCN3CCN(c4nc5ccccc5nc4-c4ccccc4)CC3)n(N)c(=O)c2c1C"
observation_type = "IC50"
unit_string = "nM"
limit_sign = ">"
recorded_number = 100

[[record]]
compound = "Nn1c(CCCCN2CCN(c3ccc4ccccc4n3)CC2)nc2c(c1=O)CCC2"
observation_type = "IC50"
unit_string = "nM"
limit_sign = "="
recorded_number = 62.1

[[record]]
compound = "Nn1c(CCCCN2CCN(c3ccc4ccccc4n3)CC2)nc2c(c1=O)CC(O)CC2 (stereo not given)"
observation_type = "IC50"
unit_string = "nM"
limit_sign = "="
recorded_number = 46.5

[[record]]
compound = "Cc1sc2nc(SCCCN3CCN(c4ccc5ccccc5n4)CC3)[nH]c(=O)c2c1C"
observation_type = "IC50"
unit_string = "nM"
limit_sign = ">"
recorded_number = 100

[[record]]
compound = "Nn1c(CCCCN2CCN(c3ccc4ccccc4n3)CC2)nc2cccc(Cl)c2c1=O"
observation_type = "IC50"
unit_string = "nM"
limit_sign = ">"
recorded_number = 100

[[record]]
compound = "CC1CCc2nc(CCCCN3CCN(c4ccc5ccccc5n4)CC3)n(N)c(=O)c2C1 (stereo not given)"
observation_type = "IC50"
unit_string = "nM"
limit_sign = "="
recorded_number = 48.3

[[record]]
compound = "Nn1c(CCCN2CCN(c3ccc4ccccc4n3)CC2)nc2c(c1=O)CCCC2"
observation_type = "IC50"
unit_string = "nM"
limit_sign = ">"
recorded_number = 100

[[record]]
compound = "Nn1c(CCCCN2CCN(c3ccc4ccccc4n3)CC2)nc2cc(F)ccc2c1=O"
observation_type = "IC50"
unit_string = "nM"
limit_sign = ">"
recorded_number = 100

[[record]]
compound = "Cc1c(N2CCN(CCCCc3nc4c(c(=O)n3N)CCCC4)CC2)nc2ccccc2c1C"
observation_type = "IC50"
unit_string = "nM"
limit_sign = ">"
recorded_number = 100

[[record]]
compound = "Nn1c(SCCCN2CCN(c3ccc4ccccc4n3)CC2)nc2sc3c(c2c1=O)CCCC3"
observation_type = "IC50"
unit_string = "nM"
limit_sign = "="
recorded_number = 41.4

